Molecular target: T1, Cynomolgus Monkey SIRPγ (plate-coated extracellular domain)
T1 construct: also called Cyno SIRPγ
T1 extracellular domain: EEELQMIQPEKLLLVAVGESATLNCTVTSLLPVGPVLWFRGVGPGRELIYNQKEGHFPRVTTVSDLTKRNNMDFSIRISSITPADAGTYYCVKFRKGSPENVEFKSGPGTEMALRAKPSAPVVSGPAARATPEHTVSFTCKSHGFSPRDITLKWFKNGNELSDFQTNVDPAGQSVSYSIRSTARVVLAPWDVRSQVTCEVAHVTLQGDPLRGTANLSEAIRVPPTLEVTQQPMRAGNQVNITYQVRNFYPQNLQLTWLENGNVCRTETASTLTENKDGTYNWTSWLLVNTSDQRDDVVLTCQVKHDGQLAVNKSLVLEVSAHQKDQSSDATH
Test: ELISA, coated SIRP ECD (2 µg/mL), anti-human IgG, luminescence
quantity: EC50 (read off the curve)

Look over these answered cases.
binder	EC50 (read off the curve)
Antibody 72 (antibody, V domains shown) VH: QVQLVQSGAEVKKPGASVKVSCKASGYTFTDNYLHWVRQAPGQGLEWMGIIETSGGSTDYAQKFQGRVTMTRDTSTSTVYMELSSLRSEDTAVYYCARSFGGYSYDDAFDIWGQGTTVTVSS VL: DIQMTQSPSSLSASVGDRVTITCQASQGISNYLNWYQQKPGKAPKLLIYAASSLQSGVPSRFSGSGSGTDFTLTISSLQPEDFATYYCQQSYSSPYTFGQGTKVEIK	~0.3 µg/mL
Antibody 89 (antibody, V domains shown) VH: QVQLVQSGAEVKKPGASVKVSCKASGGTFSSYAISWVRQAPGQGLEWMGIINPSSSSTGYAQKFQGRVTMTRDTSTSTVYMELSSLRSEDTAVYYCARAGYYDSSGYYYSPYYGMDVWGQGTTVTVSS VL: EIVMTQSPATLSVSPGERATLSCRASQSISGSYLAWYQQKPGQAPRLLIYGASTRATGIPARFSGSGSGTEFTLTISSLQSEDFAVYYCQQYGSFPFTFGPGTKVDIK	~0.2 µg/mL

Moving on to the next binder.
Dear colleague, please send me the reported EC50 (read off the curve) for Antibody 81 (antibody, V domains shown) VH: QVQLVQSGAEVKKPGASVKVSCKASGYTFTSYDINWVRQAPGQGLEWMGWISGYNGNTNYAQKFQGRVTMTRDTSTSTVYMELSSLRSEDTAVYYCARSFDWLLLLDYWGQGTLVTVSS VL: DIQMTQSPSSLSASVGDRVTITCRASQSISSWLAWYQQKPGKAPKLLIYDATTLESGVPSRFSGSGSGTDFTLTISSLQPEDFATYYCQQYDSYPWTFGQGTKLEIK when you can.
~0.04 µg/mL
